# targetSystem: DAPK1 (Homo sapiens)
# Sequence (P53355 whole entry): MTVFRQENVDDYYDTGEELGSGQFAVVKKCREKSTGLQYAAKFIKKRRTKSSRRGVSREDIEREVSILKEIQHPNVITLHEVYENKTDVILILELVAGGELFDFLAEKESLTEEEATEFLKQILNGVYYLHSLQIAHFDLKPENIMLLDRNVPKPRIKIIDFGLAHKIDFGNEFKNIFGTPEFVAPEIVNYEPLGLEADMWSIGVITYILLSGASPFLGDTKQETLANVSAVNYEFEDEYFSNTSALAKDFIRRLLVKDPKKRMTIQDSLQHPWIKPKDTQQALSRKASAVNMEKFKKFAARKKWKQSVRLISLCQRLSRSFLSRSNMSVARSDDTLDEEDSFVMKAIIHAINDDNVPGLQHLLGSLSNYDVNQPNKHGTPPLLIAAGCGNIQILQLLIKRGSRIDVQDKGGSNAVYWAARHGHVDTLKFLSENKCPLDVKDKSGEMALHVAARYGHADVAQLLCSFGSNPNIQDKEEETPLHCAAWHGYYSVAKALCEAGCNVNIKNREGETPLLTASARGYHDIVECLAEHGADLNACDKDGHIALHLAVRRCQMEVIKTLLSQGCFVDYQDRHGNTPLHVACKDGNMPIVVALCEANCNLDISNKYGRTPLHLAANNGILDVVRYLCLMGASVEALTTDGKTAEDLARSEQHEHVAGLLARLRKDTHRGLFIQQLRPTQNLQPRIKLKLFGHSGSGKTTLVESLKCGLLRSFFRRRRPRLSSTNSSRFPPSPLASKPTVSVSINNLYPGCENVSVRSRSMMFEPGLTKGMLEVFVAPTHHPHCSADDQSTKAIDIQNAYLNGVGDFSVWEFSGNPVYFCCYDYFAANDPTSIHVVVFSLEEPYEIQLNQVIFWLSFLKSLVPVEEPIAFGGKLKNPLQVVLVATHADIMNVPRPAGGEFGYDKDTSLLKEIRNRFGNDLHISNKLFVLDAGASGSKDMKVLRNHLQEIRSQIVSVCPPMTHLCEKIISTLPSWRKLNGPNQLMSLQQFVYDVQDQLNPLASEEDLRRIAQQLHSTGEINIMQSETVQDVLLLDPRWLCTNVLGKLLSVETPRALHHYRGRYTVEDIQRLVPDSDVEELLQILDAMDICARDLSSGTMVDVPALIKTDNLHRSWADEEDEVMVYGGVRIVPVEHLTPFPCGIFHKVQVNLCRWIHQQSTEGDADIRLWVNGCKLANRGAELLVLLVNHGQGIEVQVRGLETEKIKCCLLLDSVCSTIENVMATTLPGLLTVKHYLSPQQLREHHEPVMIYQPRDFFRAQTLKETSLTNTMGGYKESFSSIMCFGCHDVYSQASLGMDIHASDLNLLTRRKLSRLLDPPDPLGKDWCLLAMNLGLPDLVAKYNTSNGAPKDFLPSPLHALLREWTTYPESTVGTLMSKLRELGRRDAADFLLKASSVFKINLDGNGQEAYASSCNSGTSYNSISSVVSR

{"compound": "Nc1cnc2c(c1)c1c(c3c4ccccc4[n-]c23)C(=O)NC1=O.[C-]#[O+].[Cl][Ru+3].[NH-]Cc1ccccn1 [Λ-OS1]", "unitSpec": "µM", "IC50": 22.8}

* * *

# targetSystem: MLCK
# testDescription: Radioactive [γ-33P]ATP kinase activity assay, MLCK
# particulars: read-out: IC50 MLCK; 100 μM ATP

{"substanceSmiles": "Nc1cnc2c(c1)c1c(c3c4ccccc4[n-]c23)C(=O)NC1=O.[C-]#[O+].[Cl][Ru+3].[NH-]Cc1ccccn1", "IC50, nM": 22}

* * *

# targetSystem: GSK3β (Homo sapiens)
# Sequence (P49841 whole entry): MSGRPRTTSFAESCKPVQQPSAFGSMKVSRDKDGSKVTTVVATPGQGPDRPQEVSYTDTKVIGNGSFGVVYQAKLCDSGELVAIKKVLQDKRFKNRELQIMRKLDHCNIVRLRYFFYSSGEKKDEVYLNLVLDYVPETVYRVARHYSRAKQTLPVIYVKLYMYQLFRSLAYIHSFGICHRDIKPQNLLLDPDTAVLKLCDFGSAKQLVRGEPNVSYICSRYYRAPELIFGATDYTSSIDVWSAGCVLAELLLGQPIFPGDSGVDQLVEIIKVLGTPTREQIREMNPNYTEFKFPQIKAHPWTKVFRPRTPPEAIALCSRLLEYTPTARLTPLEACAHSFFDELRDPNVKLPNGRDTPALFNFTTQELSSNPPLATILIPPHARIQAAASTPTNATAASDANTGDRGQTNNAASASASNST
reportedMetric: IC50

{"compound": "Nc1cnc2c(c1)c1c(c3c4ccccc4[n-]c23)C(=O)NC1=O.[C-]#[O+].[Cl][Ru+3].[NH-]Cc1ccccn1 [Λ-OS1]", "targetSystem": "GSK3β (Homo sapiens)", "reportedMetric": "IC50", "reportedValue": "6 nM"}

* * *

# targetSystem: PIM1 (Homo sapiens, UniProt P11309)
# Sequence (P11309 whole entry): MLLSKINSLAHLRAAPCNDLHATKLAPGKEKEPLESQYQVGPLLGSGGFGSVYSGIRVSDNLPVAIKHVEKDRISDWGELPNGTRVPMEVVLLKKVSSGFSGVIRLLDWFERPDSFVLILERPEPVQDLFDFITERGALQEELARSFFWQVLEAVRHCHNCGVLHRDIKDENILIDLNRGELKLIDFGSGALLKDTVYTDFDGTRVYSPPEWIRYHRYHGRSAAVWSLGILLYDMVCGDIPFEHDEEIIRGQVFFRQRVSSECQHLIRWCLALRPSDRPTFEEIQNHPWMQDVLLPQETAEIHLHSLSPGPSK
pIC50: −log10 of the molar value.

{"substanceSmiles": "Nc1cnc2c(c1)c1c(c3c4ccccc4[n-]c23)C(=O)NC1=O.[C-]#[O+].[Cl][Ru+3].[NH-]Cc1ccccn1", "pIC50": 7.85}

* * *

# targetSystem: PAK1 kinase domain (residues 249 to 545) (Homo sapiens, UniProt Q13153)
# Sequence (Q13153 249-545): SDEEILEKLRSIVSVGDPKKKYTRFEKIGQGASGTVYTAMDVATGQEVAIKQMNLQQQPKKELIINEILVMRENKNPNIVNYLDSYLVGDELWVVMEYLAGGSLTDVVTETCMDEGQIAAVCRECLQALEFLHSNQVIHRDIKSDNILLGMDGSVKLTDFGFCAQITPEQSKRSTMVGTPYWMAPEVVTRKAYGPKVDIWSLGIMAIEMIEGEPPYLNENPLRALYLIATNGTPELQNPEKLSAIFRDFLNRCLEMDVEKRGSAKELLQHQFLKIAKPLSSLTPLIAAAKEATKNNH

{"substanceSmiles": "Nc1cnc2c(c1)c1c(c3c4ccccc4[n-]c23)C(=O)NC1=O.[C-]#[O+].[Cl][Ru+3].[NH-]Cc1ccccn1", "IC50": "> 100 µM"}

Source: paper PMC3076536
